system: SW-620 colon; assay: NCI tumour cell line growth inhibition, 48 h
Attribute: TGI
experimental-readout: TGI

compound	experimental-readout	result
C=C1c2c(cc3c(c2O)c(=O)c2ccccc2n3C)OC1(C)C	TGI	> 100 µM
CCOC(=O)CC1(O)C=CC(=O)C=C1	TGI	4.39 µg/mL
CN1CCC2(CC1)C(=O)N(N1CCCCCC1)C(=O)N2c1ccccc1	TGI	> 100 µM
COc1ccc(C(c2ccc(C(C)C)cc(=O)c2O)c2c(O)cc3oc(-c4ccccc4)cc(=O)c3c2O)cc1 (stereo not given)	TGI	> 100 µM
CC(C)(C)c1ccc(CN2CCN(C(c3ccccc3)c3ccc(Cl)cc3)CC2)cc1 (stereo not given)	TGI	> 100 µM
CCN(CC)c1ccc2c(c1)Oc1nc(N)c(C#N)c(N)c1C2Sc1ccc(SC)cc1 (stereo not given)	TGI	3.68 µM
Cc1ccccc1C(=O)Oc1ccc(Oc2ccccc2)cc1	TGI	> 100 µM
CN1C(c2ccccc2)=CC(=O)C(O)=C(c2ccccc2)S1(=O)=O	TGI	> 100 µM
c1ccc(N=C2SC(=NNc3ccccc3)SC2=Nc2ccccc2)cc1	TGI	> 100 µM
O=C1OC(c2ccc(O)c(Cl)c2)(c2ccc(O)c(Cl)c2)c2ccc(Br)c3cccc1c23 (tested in a mixture with another compound)	TGI	41.1 µM

* * *

Quick reference for TGI among some compounds
test system: COLO 205 colon; test: NCI tumour cell line growth inhibition, 48 h
experimental-readout: TGI

compound	result
Cc1c(-c2cc3n(n2)C(c2cccs2)C(C#N)=C(c2ccccc2)N3)c(=O)n(-c2ccccc2)n1C (configuration not stated)	> 100 µM
NC1CC(=O)c2csc(Br)c21 (configuration not stated)	> 51.4 µM
O=C(Oc1ccccc1)c1cc2cc(CCl)ccc2oc1=O	52.9 µM
O=C(CN1CCN(C(=O)OCc2ccccc2)CCN(CC(=O)N2CCCCC2)CCN(C(=O)OCc2ccccc2)CC1)N1CCCCC1	27.2 µM
CC1(O)CC2C(CC1SCCO)C2(C)C (configuration not stated)	> 100 µM
CCCNC(=S)N/N=C/c1cccc(C)n1	> 100 µM
c1ccc(C2SCC3=Nc4ccccc4CN32)cc1 (configuration not stated)	> 100 µM

* * *

test system: SK-MEL-2 melanoma; assay: NCI tumour cell line growth inhibition, 48 h
experimental-readout: TGI

compound	result
O=C1C2C=CC1C1C(=O)OC(=O)C21 (configuration not stated)	> 100 µM
O=C1c2ccccc2CC12Cc1cc3c(cc1C2=O)CCC3 (configuration not stated)	> 100 µM
O=C(/C=C/c1ccc(O)c(O)c1)OCCc1cccc2ccccc12	10.2 µM
COC(OC)c1cccc2c1C1(O)CCC3(CC21)OCCCCO3 (configuration not stated)	> 100 µM
CC(=O)OC1CC2CCC1(C)C2(C)C (configuration not stated)	> 100 µM
COc1ccc2c3c1OC1C(=O)C=CC4(O)C(C2)NCC[C@@]314 (some centres not stated)	6.65 µM
CC(=O)OC1CCn2nnc(COC(=O)NC(C)C)c21 (configuration not stated)	> 100 µM
C=C1c2c(cc3c(c2O)c(=O)c2ccccc2n3C)OC1(C)C	> 100 µM
C(=C1c2ccccc2-c2ccccc21)c1ccccn1	43 µM
O=[N+]([O-])c1ccccc1N=Nc1c(O)[nH]c2ccccc12	> 100 µM
CC(=O)C1=C(N=[N+]=[N-])c2cccc3cccc(c23)C1=O	31.4 µM
O=C(CCC(=O)Nc1ccc(Cl)cc1)CC(=O)c1ccc(F)cc1	> 100 µM

Reference source for all entries: PubChem BioAssay (NCI)
